Here, each record is paired with measured kon data.
Target: T1, native human ApoC3 (human, UniProt P02656 21-99, biotinylated in the captured-antigen assays (Tables 6 and 8); sites not stated)
T1 construct: also called nhuApoC3; native huApoC3
T1 sequence (P02656 21-99): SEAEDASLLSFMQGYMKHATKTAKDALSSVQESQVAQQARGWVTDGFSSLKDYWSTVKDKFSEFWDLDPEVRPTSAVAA
Assay: SPR, IgG captured via anti-human Fc, ApoC3 analyte 400 nM
Description: Immobilization was performed in accordance with the method provided by Biacore in the NHS/EDC kit (Biacore AB). Briefly, after activation of the chip, a solution of 30 μg/ml anti-human Fcγ antibody in 10 mM acetate buffer with pH 5.0 was injected until the surface density reached approximately 10,000 RU. […] The resulting sensorgrams were analysed with BIAevaluation 4.1 software using the Langmuir 1:1 binding model to derive binding kinetics. […]
Reply with just the number (in M⁻¹ s⁻¹).

Example binders with recorded kon:
29A06 IgG (antibody, V domains shown) VH: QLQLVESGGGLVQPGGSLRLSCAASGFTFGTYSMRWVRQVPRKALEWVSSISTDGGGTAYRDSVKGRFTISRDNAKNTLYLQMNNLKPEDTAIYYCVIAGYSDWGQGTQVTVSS VL: DVVLTQTPGSLSVVPGESASISCKASQNLVHSNGKTYLYWLLQKPGQSPQRLIYQVSNRGSEVPDRFTGSGSGTDFTLKISGVKAEDAGVYYCAQGTYWPKTFGQGTKLEIK    336000
29B03 IgG (antibody, V domains shown) VH: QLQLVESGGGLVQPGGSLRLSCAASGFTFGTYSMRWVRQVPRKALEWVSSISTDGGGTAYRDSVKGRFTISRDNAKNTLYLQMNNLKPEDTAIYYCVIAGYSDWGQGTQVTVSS VL: DVVLTQTPGSLSVVPGESASISCKAGQNLVHPDGKTYLYWLLQKPGQSPQRLIYQVSNRDSGVPDRFTGSGSGTDFTLKISGVKVEDAGVYYCAQGTYWPKTFGQGTKLEIK    215000
29F10 IgG (antibody, V domains shown) VH: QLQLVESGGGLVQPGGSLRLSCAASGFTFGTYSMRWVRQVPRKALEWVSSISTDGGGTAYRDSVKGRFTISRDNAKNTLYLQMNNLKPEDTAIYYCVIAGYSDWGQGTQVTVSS VL: DVVLTQTPGSLSVVPGEPASVSCKASQSLVHPDGKTYLYWLLQKPGQSPQRLIYQVSNRGSGVPDRFTGSGSGTDFTLEISGVKAEDAGVYYCAQGTYWPKTFGQGTKLEIK    122000
29G02 IgG (antibody, V domains shown) VH: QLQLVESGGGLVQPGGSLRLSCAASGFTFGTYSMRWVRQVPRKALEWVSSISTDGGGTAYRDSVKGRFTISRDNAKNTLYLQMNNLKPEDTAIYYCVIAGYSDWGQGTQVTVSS VL: DVVLTQTPGSLSVVPGESASISCKATQSLVHIDGKTYLYWLLQKPGQSPQRLIYQVSTRDSGVPDRFTGAGSGAEFTLKISGVKAEDAGVYYCAQDTYSTKTFGQGTKLEIK    247000
29A05 IgG (antibody, V domains shown) VH: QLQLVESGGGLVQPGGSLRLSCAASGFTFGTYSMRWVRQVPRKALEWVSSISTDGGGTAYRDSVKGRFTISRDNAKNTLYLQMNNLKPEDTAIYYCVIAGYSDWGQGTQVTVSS VL: DVVLTQTPGSLSVVPGESASISCKASQSLVYSDGKTYLYWLLQKPGQSPQRLIYQVSNRDSGVPDRFTGSGSGTDFTLKISGVKVEDAGVYYCAQGTYWPKTFGQGTKLEIK    181000
5E5 WT IgG (antibody, V domains shown, Full-length IgG captured by an anti-human Fc antibody) VH: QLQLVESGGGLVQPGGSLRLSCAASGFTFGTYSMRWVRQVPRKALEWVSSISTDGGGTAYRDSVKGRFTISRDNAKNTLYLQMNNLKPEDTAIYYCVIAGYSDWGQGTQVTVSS VL: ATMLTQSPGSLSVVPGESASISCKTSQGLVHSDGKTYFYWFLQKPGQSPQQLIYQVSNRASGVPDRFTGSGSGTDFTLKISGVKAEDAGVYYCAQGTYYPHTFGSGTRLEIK    165000

# context switch: different binder, same kon
Ask | // Input: 29G11 IgG (antibody, V domains shown) VH: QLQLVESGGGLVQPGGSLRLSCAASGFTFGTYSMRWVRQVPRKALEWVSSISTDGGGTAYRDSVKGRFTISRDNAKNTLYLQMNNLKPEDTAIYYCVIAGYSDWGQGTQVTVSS VL: DVVLTQTPGSLSVVPGGSASISCKASQSLVYSDGKTYLYWLRQKPGQSPQRLIYQVSNRPSGVPDRFTGSGSGTDFTLKISGVKAEDAGVYYCAQDTYSTKTFGQGTKLEIK . Output its kon only.
Reply | 207000
